Biological target: Burosumab (wild type)
Sequence (chain, as listed by the source, chain 1 of 2): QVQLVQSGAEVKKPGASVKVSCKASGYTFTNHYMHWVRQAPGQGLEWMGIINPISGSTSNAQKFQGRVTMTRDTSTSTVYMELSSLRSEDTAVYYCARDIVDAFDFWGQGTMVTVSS
Sequence (chain, as listed by the source, chain 2 of 2): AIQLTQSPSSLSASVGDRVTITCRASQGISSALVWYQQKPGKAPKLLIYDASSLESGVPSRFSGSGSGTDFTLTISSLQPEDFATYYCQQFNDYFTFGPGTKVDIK
Assay: indirect ELISA
Conditions: chain shown with the change;; read off a plot
reported-endpoint: ratio to parent
Format: numeric value only, no unit, no commentary.

Check out these entries, answers already filled in.
binder	ratio to parent
His-SUMO-FGF23 (N-terminal domain of human FGF23, wild type), Q9GZV9 E121A (protein) YPNASPLLGSSWGGLIHLYTATARNSYHLQIHKNGHVDGAPHQTIYSALMIRSEDAGFVVITGVMSRRYLCMDFRGNIFGSHYFDPENCRFQHQTLANGYDVYHSPQYHFLVSLGRAKRAFLPGMNPPPYSQFLSRRNEIPLIHFNTPIPRRHTRSAEDDSERDPLNVLKPRARMTPAPA	1
His-SUMO-FGF23 (N-terminal domain of human FGF23, wild type), Q9GZV9 H133A (protein) YPNASPLLGSSWGGLIHLYTATARNSYHLQIHKNGHVDGAPHQTIYSALMIRSEDAGFVVITGVMSRRYLCMDFRGNIFGSHYFDPENCRFQHQTLENGYDVYHSPQYAFLVSLGRAKRAFLPGMNPPPYSQFLSRRNEIPLIHFNTPIPRRHTRSAEDDSERDPLNVLKPRARMTPAPA	2.2

Lookup result for His-SUMO-FGF23 (N-terminal domain of human FGF23, wild type), Q9GZV9 Y70A (protein) YPNASPLLGSSWGGLIHLYTATARNSYHLQIHKNGHVDGAPHQTIASALMIRSEDAGFVVITGVMSRRYLCMDFRGNIFGSHYFDPENCRFQHQTLENGYDVYHSPQYHFLVSLGRAKRAFLPGMNPPPYSQFLSRRNEIPLIHFNTPIPRRHTRSAEDDSERDPLNVLKPRARMTPAPA ; measured ratio to parent: 1.8

Lookup result for His-SUMO-FGF23 (N-terminal domain of human FGF23, wild type), Q9GZV9 F82A (protein) YPNASPLLGSSWGGLIHLYTATARNSYHLQIHKNGHVDGAPHQTIYSALMIRSEDAGAVVITGVMSRRYLCMDFRGNIFGSHYFDPENCRFQHQTLENGYDVYHSPQYHFLVSLGRAKRAFLPGMNPPPYSQFLSRRNEIPLIHFNTPIPRRHTRSAEDDSERDPLNVLKPRARMTPAPA ; measured ratio to parent: 1.1

Lookup result for His-SUMO-FGF23 (N-terminal domain of human FGF23, wild type), Q9GZV9 H52A (protein) YPNASPLLGSSWGGLIHLYTATARNSYALQIHKNGHVDGAPHQTIYSALMIRSEDAGFVVITGVMSRRYLCMDFRGNIFGSHYFDPENCRFQHQTLENGYDVYHSPQYHFLVSLGRAKRAFLPGMNPPPYSQFLSRRNEIPLIHFNTPIPRRHTRSAEDDSERDPLNVLKPRARMTPAPA ; measured ratio to parent: 9

Lookup result for His-SUMO-FGF23 (N-terminal domain of human FGF23, wild type), Q9GZV9 R76A (protein) YPNASPLLGSSWGGLIHLYTATARNSYHLQIHKNGHVDGAPHQTIYSALMIASEDAGFVVITGVMSRRYLCMDFRGNIFGSHYFDPENCRFQHQTLENGYDVYHSPQYHFLVSLGRAKRAFLPGMNPPPYSQFLSRRNEIPLIHFNTPIPRRHTRSAEDDSERDPLNVLKPRARMTPAPA ; measured ratio to parent: 8.2

Lookup result for His-SUMO-FGF23 (N-terminal domain of human FGF23, wild type), Q9GZV9 R48A (protein) YPNASPLLGSSWGGLIHLYTATAANSYHLQIHKNGHVDGAPHQTIYSALMIRSEDAGFVVITGVMSRRYLCMDFRGNIFGSHYFDPENCRFQHQTLENGYDVYHSPQYHFLVSLGRAKRAFLPGMNPPPYSQFLSRRNEIPLIHFNTPIPRRHTRSAEDDSERDPLNVLKPRARMTPAPA ; measured ratio to parent: 1

Lookup result for His-SUMO-FGF23 (N-terminal domain of human FGF23, wild type), Q9GZV9 F108A (protein) YPNASPLLGSSWGGLIHLYTATARNSYHLQIHKNGHVDGAPHQTIYSALMIRSEDAGFVVITGVMSRRYLCMDFRGNIFGSHYADPENCRFQHQTLENGYDVYHSPQYHFLVSLGRAKRAFLPGMNPPPYSQFLSRRNEIPLIHFNTPIPRRHTRSAEDDSERDPLNVLKPRARMTPAPA ; measured ratio to parent: 6.2

Lookup result for His-SUMO-FGF23 (N-terminal domain of human FGF23, wild type), Q9GZV9 Y43A (protein) YPNASPLLGSSWGGLIHLATATARNSYHLQIHKNGHVDGAPHQTIYSALMIRSEDAGFVVITGVMSRRYLCMDFRGNIFGSHYFDPENCRFQHQTLENGYDVYHSPQYHFLVSLGRAKRAFLPGMNPPPYSQFLSRRNEIPLIHFNTPIPRRHTRSAEDDSERDPLNVLKPRARMTPAPA ; measured ratio to parent: 1.7

Lookup result for His-SUMO-FGF23 (N-terminal domain of human FGF23, wild type), Q9GZV9 R99A (protein) YPNASPLLGSSWGGLIHLYTATARNSYHLQIHKNGHVDGAPHQTIYSALMIRSEDAGFVVITGVMSRRYLCMDFAGNIFGSHYFDPENCRFQHQTLENGYDVYHSPQYHFLVSLGRAKRAFLPGMNPPPYSQFLSRRNEIPLIHFNTPIPRRHTRSAEDDSERDPLNVLKPRARMTPAPA ; measured ratio to parent: 1.4

Lookup result for His-SUMO-FGF23 (N-terminal domain of human FGF23, wild type), Q9GZV9 Y107A (protein) YPNASPLLGSSWGGLIHLYTATARNSYHLQIHKNGHVDGAPHQTIYSALMIRSEDAGFVVITGVMSRRYLCMDFRGNIFGSHAFDPENCRFQHQTLENGYDVYHSPQYHFLVSLGRAKRAFLPGMNPPPYSQFLSRRNEIPLIHFNTPIPRRHTRSAEDDSERDPLNVLKPRARMTPAPA ; measured ratio to parent: 1.4
